methodNotes: Clearance in pooled human liver microsomes at 1 uM in presence of NADPH by LC-MS/MS method
Assay type: ADME, microsome
conditionsUsed: read-out: CLH
assayEndpoint: microsomal CLint at 1 µM

N#Cc1cc(C(F)(F)F)ccc1N1CCOc2cc(S(=O)(=O)Nc3ccncn3)ccc21 | < 14 µL/min/mg
N#Cc1cc(C(F)(F)F)ccc1N1CCOc2cc(S(=O)(=O)Nc3nccs3)ccc21 | < 14 µL/min/mg

# next molecule below
# return recorded microsomal CLint at 1 µM for entry `N#Cc1cc(C(F)(F)F)ccc1N1CCOc2cc(S(=O)(=O)Nc3nccs3)cc(F)c21`
< 14 µL/min/mg
